test system: M. abscessus Bamboo; assay: Caseum surrogate MBC90 (cMBC90) kill assay; type: cell-based, Mycobacterium abscessus; details: 5-day assays
Response field label: string, one of true (1) (cMBC90/bMBC90 strictly below 10) or false (0).

Molecule: CC(=O)NC[C@H]1CN(c2ccc(N3CCOCC3)c(F)c2)C(=O)O1
Assigned Class: false (0)

Molecule: NCC[C@H](O)C(=O)N[C@@H]1C[C@H](N)[C@@H](O[C@H]2O[C@H](CN)[C@@H](O)[C@H](O)[C@H]2O)[C@H](O)[C@H]1O[C@H]1O[C@H](CO)[C@@H](O)[C@H](N)[C@H]1O
Assigned Class: true (1)

Molecule: CO[C@H]1/C=C/O[C@@]2(C)Oc3c(C)c(O)c4c(c3C2=O)C2=NC3(CCN(CC(C)C)CC3)NC2=C(NC(=O)/C(C)=C/C=C/[C@H](C)[C@H](O)[C@@H](C)[C@@H](O)[C@@H](C)[C@H](OC(=O)c2ccccc2)[C@@H]1C)C4=O
Assigned Class: false (0)

Molecule: CO[C@H]1/C=C/O[C@@]2(C)Oc3c(C)c(O)c4c(c3C2=O)C2=NC3(CCN(CC(C)C)CC3)NC2=C(NC(=O)/C(C)=C/C=C/[C@H](C)[C@H](O)[C@@H](C)[C@@H](O)[C@@H](C)[C@H](OC(=O)c2cncnc2)[C@@H]1C)C4=O
Assigned Class: true (1)

Molecule: C[C@@H](O)[C@H]1C(=O)N2C(C(=O)O)=C(SCCN=CN)C[C@H]12
Assigned Class: true (1)

Molecule: COc1c(N2C[C@@H]3CCCN[C@@H]3C2)c(F)cc2c(=O)c(C(=O)O)cn(C3CC3)c12
Assigned Class: true (1)

Molecule: CC[C@H]1OC(=O)[C@H](C)[C@@H](O[C@H]2C[C@@](C)(OC)[C@@H](O)[C@H](C)O2)[C@H](C)[C@@H](O[C@@H]2O[C@H](C)C[C@H](N(C)C)[C@H]2O)[C@](C)(OC)C[C@@H](C)C(=O)[C@H](C)[C@@H](O)[C@]1(C)O [clarithromycin, reference compound]
Assigned Class: false (0)

Molecule: CO[C@@]1(NC(=O)Cc2cccs2)C(=O)N2C(C(=O)O)=C(COC(N)=O)CS[C@@H]21
Assigned Class: true (1)

Molecule: CN(C)c1cc(NC(=O)CNC(C)(C)C)c(O)c2c1C[C@H]1C[C@H]3[C@H](N(C)C)C(O)=C(C(N)=O)C(=O)[C@@]3(O)C(O)=C1C2=O
Assigned Class: true (1)

Molecule: CO[C@H]1/C=C/O[C@@]2(C)Oc3c(C)c(O)c4c(c3C2=O)C2=NC3(CCN(CC(C)C)CC3)NC2=C(NC(=O)/C(C)=C\C=C\[C@H](C)[C@H](O)[C@@H](C)[C@@H](O)[C@@H](C)[C@H](OC(C)=O)[C@@H]1C)C4=O [rifabutin, reference compound]
Assigned Class: false (0)

Molecule: CO[C@H]1/C=C/O[C@@]2(C)Oc3c(C)c(O)c4c(c3C2=O)C2=NC3(CCN(CC(C)C)CC3)NC2=C(NC(=O)/C(C)=C/C=C/[C@H](C)[C@H](O)[C@@H](C)[C@@H](O)[C@@H](C)[C@H](OC(=O)c2cccnc2)[C@@H]1C)C4=O
Assigned Class: false (0)
